B1: MTMR15 (parent)
chain: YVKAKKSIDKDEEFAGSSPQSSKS

Variants of: B1
EXPERIMENT: protein stability index of a GFP-peptide fusion (GPS, HEK-293T) (PSI 1-6); higher = more stable;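 note: lentivirally expressed fusions sorted by FACS into six bins by GFP to DsRed ratio, PSI derived from sequencing read proportions per bin multiplied by bin number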
CONDITION_DETAILS: c terminus: a fixed tail appended
MEASUREMENT_NAME: protein stability index

>  <RESIDUE_CHANGE>
S21R

>  <MEASUREMENT_NAME>
protein stability index

>  <OBSERVED>
2.78

$$$$
>  <RESIDUE_CHANGE>
D11N

>  <MEASUREMENT_NAME>
protein stability index

>  <OBSERVED>
2.87

$$$$
>  <RESIDUE_CHANGE>
S21I

>  <MEASUREMENT_NAME>
protein stability index

>  <OBSERVED>
2.67

$$$$
>  <RESIDUE_CHANGE>
K3H

>  <MEASUREMENT_NAME>
protein stability index

>  <OBSERVED>
3.22

$$$$
>  <RESIDUE_CHANGE>
A15E

>  <MEASUREMENT_NAME>
protein stability index

>  <OBSERVED>
3.31

$$$$

## Task # protein stability index lookup, item `K5Q`
## Result 3.83

## Task Subsequent entry: `K6H`
## Result 3.26

## Task Subsequent entry: `P19S`
## Result 3.42

## Task Subsequent entry: `F14K`
## Result 3.29

## Task Subsequent entry: `K10S`
## Result 3.25

## Task Subsequent entry: `P19Y`
## Result 3.02

## Task Subsequent entry: `S18M`
## Result 2.59

## Task Subsequent entry: `K6F`
## Result 3.02

## Task Subsequent entry: `S7Y`
## Result 2.08

## Task Subsequent entry: `Y1D`
## Result 5.62

## Task Subsequent entry: `F14Q`
## Result 2.89

## Task Subsequent entry: `D9R`
## Result 3.05

## Task Subsequent entry: `S21Q`
## Result 3.34

## Task Subsequent entry: `S7C`
## Result 3.33

Each recorded value in this set is attributed to the supplement of paper PMC10567573.
